Test system: Escherichia coli TOP10
Assay: shrunken log2 fold change of peptide-encoding DNA abundance (4.5 h post-induction vs induction); higher = less antimicrobial activity (less host growth inhibition)
Details: time post-induction: 4.5 h; library: site-saturation at positions 5, 18, 19, 20
value type: shrunken log2 fold change
Simply state the number, no unit and no words.

Per the records, this sequence ( "RRIRSRPPRLPRPRPRPSHEPRP" ) has shrunken log2 fold change equal to 0.0867

---

System: Escherichia coli TOP10;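 further: peptides expressed intracellularly from a pBAD plasmid library in pooled LB shake-flask culture, induced with 0.3% L-arabinose, DNA abundance read by NGS, three biological replicates, DESeq2 with apeglm shrinkage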
Assay: shrunken log2 fold change of peptide-encoding DNA abundance (4.5 h post-induction vs induction); higher = less antimicrobial activity (less host growth inhibition)
Conditions: time post-induction: 4.5 h; library: site-saturation at positions 5, 18, 19, 20
We begin with a simple list: items and their reported shrunken log2 fold change.
Would you mind answering with just the numeric figure?

Take a look at these entries with their results.
{"seq string": "RRIRKRPPRLPRPRPRPYYMPRP", "value type": "shrunken log2 fold change", "val": -0.405}
{"seq string": "RRIRKRPPRLPRPRPRPFACPRP", "value type": "shrunken log2 fold change", "val": -0.0138}
{"seq string": "RRIRIRPPRLPRPRPRPRWGPRP", "value type": "shrunken log2 fold change", "val": 0.181}

Query "RRIRHRPPRLPRPRPRPFTPPRP" on Escherichia coli TOP10; shrunken log2 fold change returned: -0.484

shrunken log2 fold change value, target or system Escherichia coli TOP10, for "RRIRKRPPRLPRPRPRPYWLPRP" : -0.229

Log: Escherichia coli TOP10, sequence "RRIRARPPRLPRPRPRPEKEPRP" , shrunken log2 fold change = 0.248

# value of shrunken log2 fold change, Escherichia coli TOP10, item "RRIRGRPPRLPRPRPRPMWIPRP" = 0.218

Note to self: shrunken log2 fold change of "RRIRHRPPRLPRPRPRPTSEPRP" with Escherichia coli TOP10 was 0.0261

The recorded shrunken log2 fold change with Escherichia coli TOP10 for "RRIRYRPPRLPRPRPRPRCCPRP" was -0.233

shrunken log2 fold change of "RRIRKRPPRLPRPRPRPKTEPRP" , assay on Escherichia coli TOP10, is -0.0466

Observed shrunken log2 fold change on Escherichia coli TOP10, entry "RRIRARPPRLPRPRPRPWDVPRP" , equals 0.246

Field shrunken log2 fold change (Escherichia coli TOP10), entry "RRIRERPPRLPRPRPRPIECPRP" : -0.339

Record "RRIRQRPPRLPRPRPRPGTRPRP" / Escherichia coli TOP10, shrunken log2 fold change recorded as 0.111

Sample "RRIRNRPPRLPRPRPRPGIKPRP" , system: Escherichia coli TOP10. Its shrunken log2 fold change is -0.192

shrunken log2 fold change for Escherichia coli TOP10 with input "RRIRMRPPRLPRPRPRPGPPPRP" equals 1.23
